B1: library; numbered along this chain (parent)
chain: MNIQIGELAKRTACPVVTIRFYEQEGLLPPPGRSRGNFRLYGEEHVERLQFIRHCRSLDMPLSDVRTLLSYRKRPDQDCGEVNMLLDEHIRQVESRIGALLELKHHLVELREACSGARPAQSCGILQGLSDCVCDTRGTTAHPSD

Variants of: B1
ASSAY_NOTES: sfGFP reporter fluorescence (15 h) (µM FITC); higher = higher leak
CONDITION_SUMMARY: library round: Round 0; ligand: none
ASSAY_METRIC: sfGFP reporter fluorescence
Please respond with just the number, no unit label.

construct_sequence=MNIQIGELAKRTACPVVTIRFCEQEGLLPPPGRSRGNFRLYGEEHVERLQFIRHCRSLDMPLSDVRTLLSYRKRPDQDCGEVNMLLDEHIRQVESRIGALLELKHHLVELREACSGARPAQSCGILQGLSDCVCDTRGTTAHPSD assay_metric="sfGFP reporter fluorescence" numeric_result=0.0614
construct_sequence=MNIQIGELAKRTACPVVTIRFTEQEGLLPPPGRSRGNFRLYGEEHVERLQFIRHCRSLDMPLSDVRTLLSYRKRPDQDCGEVNMLLDEHIRQVESRIGALLELKHHLVELREACSGARPAQSCGILQGLSDCVCDTRGTTAHPSD assay_metric="sfGFP reporter fluorescence" numeric_result=0.0594
construct_sequence=MNIQIGELAKRTACPVVTIRFYEQEGLLPPPGRSRGNFRLYGEEHVERLQFIRHCRSLDMPLSDVRTLLSYRKRPDQACGEVNMLLDEHIRQVESRIGALLELKHHLVELREACSGARPAQSCGILQGLSDCVCDTRGTTAHPSD assay_metric="sfGFP reporter fluorescence" numeric_result=0.0713
construct_sequence=MNIQIGELAKRTACPVVTIRFYEQEGLLPPPGRSRGNFRLYGEEHVERLQFIRHCRSLDMPLSDVRTLLSYRKRPDQDCGEVNMLLDEHIRQVESRRGALLELKHHLVELREACSGARPAQSCGILQGLSDCVCDTRGTTAHPSD assay_metric="sfGFP reporter fluorescence" numeric_result=0.0577
construct_sequence=MNIQIGELAKRTACPVVTIRFYEQEGLLPPPGRSRGNFRLYGEEHVERLQFIRHCRSLDMPLSDVRTLLSYRKRPDQDCGEVNMLLDEHIRQVESRIGALLELKHHLVELREACSGARPAQSCGILQGASDCVCDTRGTTAHPSD assay_metric="sfGFP reporter fluorescence" numeric_result=0.0572

# evaluate next
Data request, read-out sfGFP reporter fluorescence, for MNIQIGELAKRTACPVVTIRFYEQEGLLPPPGRSRGNFRLYGEEHVERLQFIRHCRSLDMPLSDVRTLLSYRKRPDQDCGEVNMLLDEHIRQVESRIGALLELKHHCVELREACSGARPAQSCGILQILSDCVCDTRGTTAHPSD
1.34

Numbers sourced from the supplement of paper PMC12783771.
